System: OVCAR-8 ovarian
Assay Remarks: NCI-60 one-dose screen, 48 h
Test Parameters: 10 µM unless noted
Compounds without any hit were thinned out: in the full panel of roughly 83,000, 20% have a hit. Activity calls are given as the source filed them. Rule for the calls: active = growth percent below 10; inactive = the rest.
The reply should name one outcome from True for active, False for inactive

Past entries and their recorded results:
Please indicate how the test categorized `N/C(=C\C(=O)n1nc(-c2ccccc2)cc1N)c1ccccc1` .
False

Assay result, entry O=C1OCC2=C1C(c1ccccc1)c1cc3c(cc1N2CCO)OCO3 (stereo not given) — outcome?
False

Give the logged outcome of this assay for the following compound: `O=C1Nc2ccccc2/C1=C\c1nc(C2CCN(S(=O)(=O)c3ccc(F)cc3)CC2)n2ccccc12`
False

Others:
Just curious, what result did CC(C)CCC(=O)[C@@H](C)[C@H]1[C@@H](OC2OCC(O)C(O)C2NS(C)(=O)=O)C[C@H]2[C@@H]3CC=C4C[C@@H](O)CC[C@]4(C)[C@H]3CC[C@]12C (stereo not given in full) get here?
False

// outcome(item) with item = `CCNCCCn1c2c(c3ccc(Cl)cc3c1=O)C(=O)c1cc(OC)cnc1-2`
True

---

# growth per entry
Test system: HS 578T breast
Assay Remarks: NCI-60 one-dose screen, 48 h (100 = growth as untreated, 0 = no growth, -100 = all killed)
Test Parameters: 10 µM unless noted
About 83,000 compounds went through this panel and 20% of them were active in at least one assay; those are over-represented in the sample as a whole.
Quick reminder: number only, in %, skip the unit.

Consider the compound `C=C1C(=O)O[C@H]2[C@H]1CC/C(COC(=O)NCc1c[nH]c3ccc(OC)cc13)=C\CC[C@@]1(C)O[C@@H]21` and give its measured growth.
61.8

What does the data say about its growth? Entry: `CS(=O)(=O)c1ccc(C(=O)N/N=C/c2ccccc2O)cc1`
81.5

Given the compound `COc1ccc(-n2c(COc3ccc(F)cc3)n[nH]c2=S)cc1` , what is its reported growth?
108

Quick one: growth of `O=c1oc2ccccc2cc1-c1cc(-c2ccc(-c3cc(-c4cc5ccccc5oc4=O)nc(-c4cc5ccccc5oc4=O)c3)cc2)cc(-c2cc3ccccc3oc2=O)n1` ?
104

Continuing:
What value of measured growth is listed for `c1ccc2c(N=NSc3ncnc4nc[nH]c34)c3ccccc3nc2c1` ?
53.6

Param item = CCSCC1CC(O)(c2ccccc2)C(c2ccccc2)C(c2ccc(F)cc2)O1 (centres undefined) ; retrieve measured growth.
-35.3

What measured growth goes with `CC(C)(C)OC[C@@H]1N=C(c2ccc(Br)cc2)Nc2nc3ccccn3c2C1=O` ?
65.2

// returns reported growth for input `CCCCCCCCCCCCNC(=O)N[C@H](C(=O)N[C@H]1/C=C/CCNC(=O)/C=C/[C@H](C)NC1=O)C(C)C`
49.5

Which growth value is on record for `COc1cnc2c(c1)C(=O)c1c-2n(CCCN2CCNCC2)c(=O)c2cc(Cl)ccc12` ?
66.3

What value of growth has been recorded for this entry: `Clc1cc2nc(-c3ccccc3)c(-c3ccccc3)nc2cc1Cl`
93.7

So what's the measured growth for this one? `COc1ccc(-c2cc(C(=O)Nc3ccc(C)cc3)nc3[nH]c(=O)sc23)cc1`
74.1

Form field: reported growth of `C/C(=N\Nc1ccc([N+](=O)[O-])cn1)c1ccc(N)cc1`
109

Please report the recorded growth for `CCCCCCCCCCCCCC` .
106

---

Tested on: SF-295 CNS
Assay Remarks: NCI-60 one-dose screen, 48 h (100 = growth as untreated, 0 = no growth, -100 = all killed)
Test Parameters: 10 µM unless noted
This is part of a sample that, as a whole, favours compounds with a hit. Of some 83,000 tested, about 20% had one in any assay. Active and inactive are the calls of the source. Rule for the calls: active = growth percent below 10; inactive = the rest.
Measure Name: growth

Look up growth: `Cn1cnc([N+](=O)[O-])c1S(=O)(=O)Oc1cccc2ccccc12`
102% (inactive)

State the recorded growth for this entry: `COc1ccc2c(c1)sc1nc(-c3ccccc3)c(-c3cccc4ccccc34)n12`
-38.7% (active)

For the compound `CCC(=O)OCc1ccc(OC)cc1` , what growth is on record?
101% (inactive)

Report growth for `CC1(C)CC(=O)c2cc3c(N)c(C(=O)Nc4ccc(Cl)cc4)sc3nc2C1` please.
100% (inactive)

Others:
Quick check: growth of `CCN(CC)c1ccc(/C=N/N=C(N)N)cc1` ?
27.8% (inactive)

Recorded growth of `Cc1cc(O)c2cc3c(O)c(O)ccc3cc2c1` , please.
109% (inactive)

Any idea what growth was measured for `COc1cc([N+](=O)[O-])cc(OC)c1OC` ?
110% (inactive)

Quick one: growth of `C=CC(=O)N1CN(C(=O)C=C)CN(C(=O)C=C)C1` ?
112% (inactive)

Which growth reading was recorded for the compound `O=C(NCCN1CCCC1)n1cc(-c2ccncc2)c(-c2cc(O)cc(Cl)c2)n1` ?
125% (inactive)

---

Known growth of a selection of compounds
Tested on: HCC-2998 colon
Assay Remarks: NCI-60 one-dose screen, 48 h (100 = growth as untreated, 0 = no growth, -100 = all killed)
Test Parameters: 10 µM unless noted
Compounds without any hit were thinned out: in the full panel of roughly 83,000, 20% have a hit.
State just the number; it will be interpreted in %.

What value of measured growth is listed for Cc1nn(-c2ccccc2)c2nc3c(nc12)C1=NCCN1C(c1ccc(Cl)cc1)N3 (centres undefined) ?
-25.2

What growth value was documented for this compound, `Cn1cnc([N+](=O)[O-])c1S(=O)(=O)Oc1ccccc1` ?
101

Need growth of `COc1ncnc2[nH]cc(CN3CCN(c4ccc(F)cc4)CC3)c12` , thanks.
104

Then this compound:
Entry under review: `COc1ccc(-c2cc(C(=O)Nc3ccc(Br)cc3)nc3[nH]c(=O)sc23)cc1` . Reported growth?
36.1

---

System: SF-268 CNS
Assay Remarks: NCI-60 one-dose screen, 48 h (100 = growth as untreated, 0 = no growth, -100 = all killed)
Test Parameters: 10 µM unless noted
The panel holds about 83,000 compounds, 20% with a hit somewhere; the sample as a whole holds those more often.
Measure Name: growth (%)
The response must be a number in % with no trailing unit.

Below, each entry is followed by its recorded growth result.
Any idea what its growth is? The compound is `C=C1C(=O)O[C@H]2[C@H]1CC/C(COC(=O)NCc1cn(C)c3ccccc13)=C\CC[C@@]1(C)O[C@@H]21`
24.2

Please report the recorded growth for `COc1ccc(C(=O)O)cc1.[Ag]` .
97

growth for `CCN(CC)c1ccc2c(cc1=O)[C@@H](NC(C)=O)CCc1cc(OC)c(OC)c(OC)c1-2` ?
24.4

Next:
I have this compound here, `Cc1ccc(C(=O)CC(=O)C(F)(F)C(F)(F)C(F)(F)F)s1` , and I need its recorded growth.
101

# lookup: growth of `COc1ccc(-c2cc(-c3cc4ccccc4oc3=O)n(-c3ccccc3)n2)cc1`
71.1

Form field: reported growth of `N/N=C(\C(=N\N)c1ccccc1)c1ccccc1`
103

For the compound `CCOC(=O)CCN(CCC(=O)OCC)c1ccccc1` , what growth is on record?
93.6

So what's the measured growth for this one? `CCOC(=O)Nc1ccc2nc(Sc3ccc(Cl)cc3)sc2c1`
54.4

---

System: MALME-3M melanoma
Assay Remarks: NCI-60 one-dose screen, 48 h (100 = growth as untreated, 0 = no growth, -100 = all killed)
Test Parameters: 10 µM unless noted
The panel holds about 83,000 compounds, 20% with a hit somewhere; the sample as a whole holds those more often.
# class 1 = growth below 80% (exclusive); class 0 = growth at/above 80%

Please determine if `COc1ccc(Cl)cc1Nc1nc(C(F)(F)F)ccc1C(=O)NN` is below 80% in terms of growth.
class 1

Next:
State whether 80% exceeds growth recorded for `CCCCCCCC/C=C/CCCCCCCC1=NC(C)(C)CN1c1ccccc1` .
class 0

Bench note: check whether CCN1C(=O)N(CC)C2C1NN=c1s/c(=C\c3ccco3)c(=O)n12 (stereo unspecified) shows growth below 80%
class 1

Please determine if `CS(=O)(=O)c1ccc(Cl)c([N+](=O)[O-])c1` is below 80% in terms of growth.
class 0

Confirm or reject: growth of `Clc1cc2nc(-c3ccccc3)c(-c3ccccc3)nc2cc1Cl` lies strictly below 80%
class 0

Quick check: growth of `CCOC(=O)c1ccc2c(c1)nc(-c1ccc(Cl)cc1)n2-c1cc(C(C)(C)C)[nH]n1` under 80%?
class 1

Take the compound `CS(=O)(=O)c1ccc(C(=O)N/N=C/c2ccccc2O)cc1` and say whether its growth is less than 80%.
class 1

Does the reported growth of the following compound sit strictly below 80%? `CC(C)(CCc1ccccn1)C(=O)CCCc1ccccn1`
class 1

Could you please tell me whether growth recorded for `Nc1nc(N)c2cc(NCc3ccc(Cl)c(Cl)c3)ccc2n1` is less than 80%?
class 1

Please indicate whether the reported growth of `COc1ccc(Nc2nc(N)nc3c(=O)[nH]ccc23)cc1` is strictly below 80%.
class 0

Data provenance is PubChem BioAssay (NCI).
